System: SF-539 CNS
Experiment: NCI tumour cell line growth inhibition, 48 h; in the data active = GI50 below about 0.43 µM; inactive = the rest
Where a SMILES comes first, the peptide text is derived from it. [ ]: non-standard residue; d: D form. The star is where a group is joined. ξ: configuration not given here. NMeF = CN[C@@H](Cc1ccccc1)C(=O)O; NMeV = CN[C@H](C(=O)O)C(C)C; ξNMeN = CNC(CC(N)=O)C(=O)O; NMeA = CN[C@@H](C)C(=O)O; ξNMeV = CNC(C(=O)O)C(C)C; Boc = CC(C)(C)OC(=O)*
Labels: 1.0 for active, 0.0 for inactive

Molecule	Label Value
Nc1nc2cc(O)ccc2n2cc3c(F)cccc3c12	0.0
O=C(Nc1ccc(Cl)cc1)Nc1ccc(Cl)c(C(F)(F)F)c1	0.0
CCc1ccc(C(=O)/C=C/C23c4ccccc4C(c4ccccc42)C2C(=O)NC(=O)C23)cc1 (configuration not stated)	0.0
C=C1C(O)C2C(=C(CCC3CC3)C13CC3)C(=O)C(C)(C)C2O (configuration not stated)	0.0
COc1ccc(/C=C2\COc3ccc(O)c(O)c3C2=O)cc1	1.0
COc1ccc2c(c1OC)-c1c(c3ccc([N+](=O)[O-])cc3c(=O)n1CCCN)C2=O	0.0
CCCN1C/C(=C\c2ccc(O)c(OC)c2)C(=O)/C(=C/c2ccc(O)c(OC)c2)C1	0.0
CC(C)N(C(C)C)[PH+]1O[PH+](N(C(C)C)C(C)C)O[PH+](N(C(C)C)C(C)C)O[PH+](N(C(C)C)C(C)C)O1.[C-]#[O+].[C-]#[O+].[C-]#[O+].[C-]#[O+].[C-]#[O+].[C-]#[O+].[C-]#[O+].[C-]#[O+].[Mo].[Mo] (configuration not stated)	0.0
COC(=O)[C@H](C)N(C)C(=O)C(CC(N)=O)N(C)C(=O)[C@H](Cc1ccccc1)N(C)C(=O)[C@@H]1CCCN1C(=O)[C@H](C(C)C)N(C)C(=O)C(C(C)C)N(C)C(=O)[C@@H](NC(=O)OC(C)(C)C)C(C)C (some centres not stated) (Boc-V[ξNMeV][NMeV]P[NMeF][ξNMeN][NMeA]-OMe)	0.0
c1ccc2nc(N/N=C3\CCCCC3C3CCCCC3)ccc2c1 (configuration not stated)	0.0
COc1ccc(/C=C/C2C(C#N)=C(N)OC3=C2C(=O)CCC3)cc1 (configuration not stated)	0.0
O=C(CN(/C=C/C(=O)C(F)(F)F)c1ccc(Cl)cc1)c1ccc(F)cc1	0.0
COc1cc(-c2nn(-c3cccc(NC(=O)Nc4cccc(C(F)(F)F)c4)c3)cc2-c2ccncc2)ccc1Cl	0.0
Nc1c(C(=O)Nc2cccc(C(F)(F)F)c2)sc2nc3c(cc12)C(O)CCC3 (configuration not stated)	0.0
CC(=O)c1c(Nc2cccc(F)c2)[nH]c2c(Cl)cc(Cl)c(Cl)c2c1=O	1.0
COc1ccc(C(=O)c2sc3nc4c(cc3c2N)CCCC4)cc1OC	0.0
N/C(=N\N=C/c1c2ccccc2c(Cl)c2ccccc12)NO	0.0
Cc1nc2cc(-c3nn(C(C)C)c4ncnc(N)c34)ccc2o1	1.0
C#CC[C@@H]1C[C@]2(C)[C@H]3CC[C@@H]4[C@H]5C(C(=C)C)CC[C@]5(C(=O)NCCCCN)CC[C@@]4(C)[C@]3(C)CC[C@H]2C(C)(C)[C@H]1OC(C)=O (some centres not stated)	0.0
CC(C)Oc1ccc(-c2nn([C@@H](C)c3oc4ccc(F)cc4c(=O)c3-c3cccc(F)c3)c3ncnc(N)c23)cc1F	0.0
COc1ccc(C(=S)N(C)NC(=O)CC(=O)NN(C)C(=S)c2ccc(OC)cc2)cc1	0.0
COc1cc(OC)c(/C=C/c2cc[n+](C)c3ccccc23)c(OC)c1	0.0

Hello, the source for this data is PubChem BioAssay (NCI), in case you need it.
